Value source: patent US20200283478A1

- SUBJECT OF TEST: T1, His-tagged, full-length human PCSK9 (proprotein convertase subtilisin/kexin type 9) (human, UniProt A8T644 31-152; Q8NBP7 153-692)
- T1 construct: also called His-PCSK9; C-terminal (His)8-tagged PCSK9
- TEST METHOD NOTES: TR-FRET competition; His-PCSK9 with LDLR-Fc as competitor ligand
pIC50: −log10 of the molar value. Square brackets hold non-standard residues; d marks the D form. hArg = N=C(N)NCCCC[C@H](N)C(=O)O
PROPERTY NAME: pIC50

Some entries whose results are on file:
BINDER	PROPERTY NAME	MEASURED
Ac-SFAFPGWNLV[hArg]IGLLR-NH2 (SMILES CC[C@H](C)[C@H](NC(=O)[C@H](CCCCNC(=N)N)NC(=O)[C@@H](NC(=O)[C@H](CC(C)C)NC(=O)[C@H](CC(N)=O)NC(=O)[C@H](Cc1c[nH]c2ccccc12)NC(=O)CNC(=O)[C@@H]1CCCN1C(=O)[C@H](Cc1ccccc1)NC(=O)[C@H](C)NC(=O)[C@H](Cc1ccccc1)NC(=O)[C@H](CO)NC(C)=O)C(C)C)C(=O)NCC(=O)N[C@@H](CC(C)C)C(=O)N[C@@H](CC(C)C)C(=O)N[C@@H](CCCNC(=N)N)C(N)=O) [Compound 228: Ac-SFAFPGWNLV(homoR)IGLLR-NH2]	pIC50	4.52
Ac-DSYPGWNLV[hArg]IGLLR-NH2 (SMILES CC[C@H](C)[C@H](NC(=O)[C@H](CCCCNC(=N)N)NC(=O)[C@@H](NC(=O)[C@H](CC(C)C)NC(=O)[C@H](CC(N)=O)NC(=O)[C@H](Cc1c[nH]c2ccccc12)NC(=O)CNC(=O)[C@@H]1CCCN1C(=O)[C@H](Cc1ccc(O)cc1)NC(=O)[C@H](CO)NC(=O)[C@H](CC(=O)O)NC(C)=O)C(C)C)C(=O)NCC(=O)N[C@@H](CC(C)C)C(=O)N[C@@H](CC(C)C)C(=O)N[C@@H](CCCNC(=N)N)C(N)=O) [Compound 230: Ac-DSYPGWNLV(homoR)IGLLR-NH2]	pIC50	< 4.30

# context switch: different binder, same pIC50
Measured pIC50, Ac-ESFPGWNLV[hArg]IGLLR-NH2 (SMILES CC[C@H](C)[C@H](NC(=O)[C@H](CCCCNC(=N)N)NC(=O)[C@@H](NC(=O)[C@H](CC(C)C)NC(=O)[C@H](CC(N)=O)NC(=O)[C@H](Cc1c[nH]c2ccccc12)NC(=O)CNC(=O)[C@@H]1CCCN1C(=O)[C@H](Cc1ccccc1)NC(=O)[C@H](CO)NC(=O)[C@H](CCC(=O)O)NC(C)=O)C(C)C)C(=O)NCC(=O)N[C@@H](CC(C)C)C(=O)N[C@@H](CC(C)C)C(=O)N[C@@H](CCCNC(=N)N)C(N)=O) [Compound 227: Ac-ESFPGWNLV(homoR)IGLLR-NH2] : < 4.30
